# TARGET_OR_TEST_SYSTEM: Cellular tumor antigen p53 (Homo sapiens) (UniProt P04637)
# Sequence (P04637 whole entry, looked up): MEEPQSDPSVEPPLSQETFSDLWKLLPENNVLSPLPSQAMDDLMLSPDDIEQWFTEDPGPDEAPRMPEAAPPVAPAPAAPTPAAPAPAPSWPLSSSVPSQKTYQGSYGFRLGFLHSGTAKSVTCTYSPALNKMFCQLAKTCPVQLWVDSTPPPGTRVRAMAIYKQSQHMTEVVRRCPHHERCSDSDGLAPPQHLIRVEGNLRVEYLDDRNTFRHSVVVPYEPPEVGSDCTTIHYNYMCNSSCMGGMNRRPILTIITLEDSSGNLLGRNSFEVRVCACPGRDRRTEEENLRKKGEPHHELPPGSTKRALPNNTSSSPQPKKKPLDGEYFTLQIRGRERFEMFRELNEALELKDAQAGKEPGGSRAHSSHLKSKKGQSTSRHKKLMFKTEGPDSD
# EXPERIMENTAL_DETAILS: TOX21_p53_BLA_p4_ratio: Tox21 HCT-116 p53 Agonism Beta-lactamase Assay, Ratio, Phase 4 (AID 2283601)
Inconclusive results are not listed. The source made the active and inactive calls. Rule for the calls: active = hit-call score of the fitted dose curve at least 0.9, where 1 is the maximum; inconclusive = response in the unintended direction; inactive = score below 0.9.
Your answer must be one of the following: active, inactive

Reference set (6 entries):
1) O=C(O)C(Br)CBr (stereo not drawn)    inactive
2) N#CC(C#N)=Cc1ccc(O)c(O)c1    inactive
3) CCC(COC(=O)c1cc(OC)c(OC)c(OC)c1)(c1ccccc1)N(C)C (stereo not drawn)    inactive
4) ClC(Br)Br    inactive
5) CCOC(=O)NC(C)(C)Cc1ccc(Cl)cc1    inactive
6) Oc1ccc(C(=C(Cl)Cl)c2ccc(O)cc2)cc1    active

Call for entry C=CC(=O)OCC(C)C : inactive

Call for entry c1cc2c(c(NC3=NCCN3)c1)CCCC2 : inactive

Call for entry [N-]=[N+]=CC(=O)OC[C@H](N)C(=O)O : inactive

Call for entry [Cl][Sn]([Cl])([Cl])[Cl] : inactive
